Molecular target: T1, rat α-CGRP (Rattus norvegicus, UniProt P01256)
T1 construct: rat α (1-37); host or cells: synthetic peptide
T1 sequence (P01256 83-119 limits assumed): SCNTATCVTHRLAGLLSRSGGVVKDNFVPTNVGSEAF
Test: Biacore affinity of antibody G1 Fab and variants to rat α-CGRP
Format: binding
Conditions: 37° C., Fab, screening mode unless underlined
METRIC NAME: α-rat koff (s⁻¹)
Express the result in s⁻¹ but write the number alone.

[ask] Entry M23: G1 variant: L1 R28G; HC-FW3 L99T,A100V (antibody, V domains shown) VH: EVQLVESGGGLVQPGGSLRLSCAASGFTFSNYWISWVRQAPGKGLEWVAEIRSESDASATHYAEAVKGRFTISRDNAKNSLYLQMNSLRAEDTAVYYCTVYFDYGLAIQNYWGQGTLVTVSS VL: EIVLTQSPATLSLSPGERATLSCKASKGVTTYVSWYQQKPGQAPRLLIYGASNRYLGIPARFSGSGSGTDFTLTISSLEPEDFAVYYCSQSYNYPYTFGQGTKLEIK : reported α-rat koff = ?
[reply] 0.000799
